Task for the reader: assign each of the following compounds its reported pKd.
# System Name: Mitogen-activated protein kinase 1 (Homo sapiens)
# Sequence (P28482 whole entry): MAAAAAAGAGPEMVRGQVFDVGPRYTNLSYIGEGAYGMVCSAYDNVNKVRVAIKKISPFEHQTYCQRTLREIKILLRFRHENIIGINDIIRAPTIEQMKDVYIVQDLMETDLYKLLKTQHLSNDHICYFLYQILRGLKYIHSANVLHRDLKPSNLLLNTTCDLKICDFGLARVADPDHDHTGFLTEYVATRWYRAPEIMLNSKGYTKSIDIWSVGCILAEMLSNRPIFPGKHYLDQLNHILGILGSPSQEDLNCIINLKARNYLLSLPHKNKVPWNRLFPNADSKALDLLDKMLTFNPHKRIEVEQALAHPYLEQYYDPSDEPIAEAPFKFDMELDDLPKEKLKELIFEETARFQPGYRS
# Experiment Summary: Binding to unphosphorylated ERK2 (unknown origin) by temperature dependent fluorescence (TdF) assay
pKd: −log10 of the molar value.

Past entries and their recorded results:
{"columns": ["Compound Structure", "Reported Value"],
 "data": [
  ["CC(=O)c1ccc(N2CCN(C(=O)CN3CC[C@@H](C(=O)Nc4cc(Cl)c(O)c(Cl)c4)C3)CC2)cc1", "< 5.00"],
  ["CC(=O)c1ccc(N2CCN(C(=O)CN3CC[C@@H](C(=O)Nc4ccc(O)cc4Cl)C3)CC2)cc1", "< 5.00"]
]}

## Input Provide only the value of recorded pKd for O=C(NOC[C@H](O)CO)c1ccc(F)c(F)c1Nc1ccc(I)cc1F
## Output < 5.00
